Just for reference, patent US9062041B2 is where these values come from.

- Experimental Target: EP4 subtype of the human PGE2 receptor (Homo sapiens, UniProt P35408)
- Sequence (P35408 whole entry): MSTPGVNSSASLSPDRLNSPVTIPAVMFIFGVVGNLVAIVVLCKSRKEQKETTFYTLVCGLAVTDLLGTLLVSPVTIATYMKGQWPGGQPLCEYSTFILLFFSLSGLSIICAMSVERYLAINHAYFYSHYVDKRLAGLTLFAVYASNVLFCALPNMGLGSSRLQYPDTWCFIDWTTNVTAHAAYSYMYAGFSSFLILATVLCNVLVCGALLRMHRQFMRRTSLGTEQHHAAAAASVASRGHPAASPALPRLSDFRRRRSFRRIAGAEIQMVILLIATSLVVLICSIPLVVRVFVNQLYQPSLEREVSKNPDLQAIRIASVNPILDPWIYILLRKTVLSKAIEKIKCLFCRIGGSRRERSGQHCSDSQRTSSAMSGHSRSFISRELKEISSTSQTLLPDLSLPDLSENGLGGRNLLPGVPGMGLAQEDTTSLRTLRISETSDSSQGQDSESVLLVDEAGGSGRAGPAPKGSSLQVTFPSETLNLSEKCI
- Experimental Details: cAMP antagonism test on the human EP4 receptor (HTRF cAMP detection)
- Assay type: cell-based
- Assay Context: selectivity towards hEP4, IC50 measured by cAMP antagonism test
Recorded Endpoint: Selectivity hEP2/hEP4

Recorded results for 5 compounds are shown here.
Cc1c(C(=O)NCC(F)(F)F)ccc2nn(CC3CCN(C(=O)c4ccc(Oc5ccc(C(F)(F)F)cc5)cc4)CC3)cc12 [Example 291] ... xxx (xxx > 100)
Cc1c(C(=O)NCC2COCCO2)ccc2nn(CC3CCN(C(=O)c4ccc(Oc5ccc(C(F)(F)F)cc5)cc4)CC3)cc12 (racemic) [Example 249] ... xxx (xxx > 100)
COCCNC(=O)c1ccc2nn(CC3CCN(C(=O)c4ccc(-c5cncc(Cl)c5)cc4)CC3)cc2c1C [Example 385] ... xxx (xxx > 100)
Cc1cc2nn(CC3CN(C(=O)c4ccc(OC(F)(F)F)cc4)C3)cc2cc1C(=O)NCC(F)(F)F [Example 195] ... xx (xx: 10-100)
Cc1cc2nn(CC3CCN(C(=O)c4ccc(Oc5ccc(F)cc5)cc4)CC3)cc2cc1C(=O)NCCN1CCOCC1 [Example 78] ... xxx (xxx > 100)

Using the record for COCCNC(=O)c1ccc2nn(CC3CCN(C(=O)c4ccc(-c5ccc(Cl)cc5F)cc4)CC3)cc2c1C [Example 383] , report its Selectivity hEP2/hEP4.
xxx (xxx > 100)

# repeat for Cc1cc2nn(CC3CN(C(=O)c4ccc(S(F)(F)(F)(F)F)cc4)C3)cc2cc1C(=O)NCCSC(F)(F)F [Example 187]
xxx (xxx > 100)

How about Cc1c(C(=O)NCCSC(F)(F)F)ccc2nn(C[C@@H]3CCN(C(=O)c4ccc(Cl)cc4)C3)cc12 [Example 220] ?
xxx (xxx > 100)

Then this compound: COCCNC(=O)c1ccc2nn(CC3CN(C(=O)c4cc5cc(F)ccc5n4C)C3)cc2c1C [Example 170]
xxx (xxx > 100)

Same again, this time with CCOc1c(C(=O)NCCOC)ccc2nn(CC3CN(C(=O)c4ccc(S(F)(F)(F)(F)F)cc4)C3)cc12 [Example 277]
xxx (xxx > 100)

---

- Experimental Target: human PGD receptor (Homo sapiens, UniProt Q13258)
- Sequence (Q13258 whole entry): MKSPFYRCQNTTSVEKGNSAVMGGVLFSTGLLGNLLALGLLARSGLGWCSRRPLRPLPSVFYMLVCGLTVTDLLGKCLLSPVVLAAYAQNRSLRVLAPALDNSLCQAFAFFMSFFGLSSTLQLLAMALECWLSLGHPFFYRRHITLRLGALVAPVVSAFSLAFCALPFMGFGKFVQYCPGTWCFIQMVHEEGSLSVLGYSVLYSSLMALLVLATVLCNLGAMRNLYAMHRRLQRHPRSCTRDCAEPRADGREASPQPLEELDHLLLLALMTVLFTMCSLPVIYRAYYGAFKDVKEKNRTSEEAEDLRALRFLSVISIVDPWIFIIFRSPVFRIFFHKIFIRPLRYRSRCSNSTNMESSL
- Experimental Details: cAMP antagonism test on the human prostaglandin D receptor (HTRF cAMP detection)
- Format: cell-based
- Assay Context: selectivity towards hDP, IC50 measured by cAMP antagonism test
Recorded Endpoint: Selectivity hEP2/hDP

Cc1c(C(=O)NCC(F)(F)F)ccc2nn(CC3CCN(C(=O)c4ccc(S(F)(F)(F)(F)F)cc4)CC3)cc12 ... xxx (xxx > 100)
COCCNC(=O)c1ccc2nn(CC3CCN(C(=O)c4ccc(S(F)(F)(F)(F)F)cc4)CC3)cc2c1C ... xxx (xxx > 100)
COCCNC(=O)c1ccc2nn(CC3CCN(C(=O)c4cnc(-c5ccccc5)o4)CC3)cc2c1C ... xxx (xxx > 100)

---

- Experimental Target: human PGD receptor (Homo sapiens)
- Experimental Details: cAMP antagonism test on the human prostaglandin D receptor (HTRF cAMP detection)
- Assay type: cell-based
- Assay Context: selectivity towards hDP, IC50 measured by cAMP antagonism test
- Text: 3. Detection of Antagonism to the Human Prostaglandin D Receptor Signal The binding of prostaglandin D2 to the human PGD receptor induces the activation of membrane-located adenylate cyclases and leads to the formation of cAMP. […] In this test, the cAMP present in the lysate competes with a fluorescence-labelled cAMP (cAMP-d2) for binding to an Eu cryptate-labelled anti-cAMP antibody. […]
Recorded Endpoint: Selectivity hEP2/hDP

Some solved entries appear below for comparison.
Cc1c(C(=O)NCC(F)(F)F)ccc2nn(CC3CCN(C(=O)c4ccc(Oc5ccc(C#N)cn5)cc4)CC3)cc12 ... xx (xx: 10-100)
Cc1c(C(=O)NCC2COCCO2)ccc2nn(CC3CCN(C(=O)c4ccc(Cl)cc4)CC3)cc12 (single isomer, unassigned) [Example 414] ... xx (xx: 10-100)
COCCNC(=O)c1ccc2nn(CC3CCN(C(=O)c4ccc(-c5ccc(C#N)cc5C)cc4)CC3)cc2c1C ... xxx (xxx > 100)
COCCNC(=O)c1ccc2nn(CC3CCN(C(=O)c4cc(-c5ccccc5)no4)CC3)cc2c1C ... xxx (xxx > 100)
Cc1c(C(=O)NCCS(C)(=O)=O)ccc2nn(CC3CCN(C(=O)c4ccc(Cl)cc4)CC3)cc12 ... xxx (xxx > 100)

Value wanted: Selectivity hEP2/hDP (human PGD receptor (Homo sapiens)) of entry `COCCNC(=O)c1ccc2nn(CC3CCN(C(=O)c4ccc(-c5cc(F)cc(F)c5)cc4)CC3)cc2c1C`
xxx (xxx > 100)

Follow-up entry: `COCCNC(=O)c1ccc2nn(CC3CCN(C(=O)c4ccc(Oc5ccccc5)cc4)CC3)cc2c1C`
xxx (xxx > 100)

Please give the result for `O=C(NCCOCC1CC1)c1ccc2nn(CC3CCN(C(=O)c4ccc(-c5ccc(F)cc5)cc4)CC3)cc2c1OCC(F)(F)F` too.
xxx (xxx > 100)

Another compound to look at: `COCCNC(=O)c1ccc2nn(CC3CCN(C(=O)c4ccc(Oc5cccnc5)cc4)CC3)cc2c1C`
xxx (xxx > 100)

Param item: `Cc1ncc(-c2ccc(C(=O)N3CCC(Cn4cc5c(C)c(C(=O)NCC(F)(F)F)ccc5n4)CC3)cc2)cn1`
xx (xx: 10-100)

Note, next up: `COCCNC(=O)c1ccc2nn(CC3CCN(C(=O)c4cc5ccccc5n4C)CC3)cc2c1C`
xxx (xxx > 100)

Next: Cc1c(C(=O)NCC(C)OC2CCC2)ccc2nn(CC3CN(C(=O)c4ccc(Cl)cc4)C3)cc12 (single isomer, unassigned) [Example 155]
xxx (xxx > 100)

Moving on to `COCCNC(=O)c1ccc2nn(CC3CCN(C(=O)c4nc5ccccc5s4)CC3)cc2c1C`
xxx (xxx > 100)

Would you mind doing `Cc1c(C(=O)NCCC#N)ccc2nn(CC3CCN(C(=O)c4ccc(Oc5ccc(C(F)(F)F)cc5)cc4)CC3)cc12` as well?
xxx (xxx > 100)

---

- Experimental Target: EP2 subtype of the human PGE2 receptor (Homo sapiens, UniProt P43116)
- Sequence (P43116 whole entry): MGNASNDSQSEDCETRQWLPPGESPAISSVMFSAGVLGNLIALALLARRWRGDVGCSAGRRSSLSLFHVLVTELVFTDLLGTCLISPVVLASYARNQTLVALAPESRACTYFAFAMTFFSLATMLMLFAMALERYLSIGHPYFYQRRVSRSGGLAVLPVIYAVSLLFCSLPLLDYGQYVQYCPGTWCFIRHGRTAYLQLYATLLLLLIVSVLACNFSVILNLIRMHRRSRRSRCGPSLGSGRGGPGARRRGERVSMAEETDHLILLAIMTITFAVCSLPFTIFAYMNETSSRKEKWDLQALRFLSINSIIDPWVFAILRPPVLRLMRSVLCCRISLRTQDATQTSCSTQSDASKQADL
- Experimental Details: cAMP antagonism test on the human EP2 receptor (HTRF cAMP detection)
- Assay type: cell-based
- Assay Context: hEP2 receptor, read-out: Antagonism hEP2 IC50
# label = fulfilled if IC50 < 30 nM else not fulfilled

# count of solved cases: 2
COCCNC(=O)c1ccc2nn(CC3CCN(C(=O)c4ccc(-c5ccncc5)c(C)c4)CC3)cc2c1C [Example 393] ... not fulfilled
COCCNC(=O)c1ccc2nn(CC3CCN(C(=O)c4ccc(Cl)cc4)CC3)cc2c1OCC(F)(F)F [Example 232] ... not fulfilled

Please state whether IC50 is below 30 nM for COCCNC(=O)c1ccc2nn(CC3CCN(C(=O)c4nc5ccccc5o4)CC3)cc2c1C [Example 340]
fulfilled

Similarly, COC1CN(CCNC(=O)c2ccc3nn(CC4CCN(C(=O)c5ccc(Cl)cc5)CC4)cc3c2C)C1 [Example 238] ?
not fulfilled

What would you report for COCCNC(=O)c1ccc2nn(CC3CCN(C(=O)c4ccc(-c5ccno5)cc4)CC3)cc2c1C [Example 37] ?
not fulfilled

Another: COCCNC(=O)c1ccc2nn(CC3CCN(C(=O)c4ccc(-c5ccc(F)cc5)cc4F)CC3)cc2c1C [Example 42]
fulfilled

Another: Cc1c(C(=O)NCCOCC2CC2)ccc2nn(CC3CN(C(=O)c4ccc(-c5ccc(F)cc5)cc4)C3)cc12 [Example 157]
fulfilled

---

- Experimental Target: UniProt:Q13258
- Experimental Details: cAMP antagonism test on the human prostaglandin D receptor (HTRF cAMP detection)
- Assay type: cell-based
- Assay Context: selectivity towards hDP, IC50 measured by cAMP antagonism test
Recorded Endpoint: Selectivity hEP2/hDP

Cc1c(C(=O)NCCOCC2CC2)ccc2nn(CC3CCN(C(=O)c4ccc(C5CC5)cc4)CC3)cc12 ... xxx (xxx > 100)
COC(C)CNC(=O)c1cc2cn(CC3CN(C(=O)c4ccc(OC(F)(F)F)cc4)C3)nc2cc1C (racemic) ... xxx (xxx > 100)
Cc1c(C(=O)NCCN2CCOCC2)ccc2nn(CC3CCN(C(=O)c4cccc(OC(F)(F)F)c4)CC3)cc12 ... xx (xx: 10-100)
COCCNC(=O)c1ccc2nn(CC3CCN(C(=O)c4ccc(-c5ncco5)cc4)CC3)cc2c1C ... xxx (xxx > 100)

Param item = `COCCNC(=O)c1ccc2nn(CC3CCN(C(=O)c4ccc(Oc5ccc(F)cc5)cc4)CC3)cc2c1OCC(F)(F)F` ; retrieve measured Selectivity hEP2/hDP.
xxx (xxx > 100)

Now give it for `COCCNC(=O)c1ccc2nn(C[C@@H]3CCN(C(=O)c4ccc(OC(F)(F)F)cc4)C3)cc2c1C` too.
xxx (xxx > 100)

Then this compound: `Cc1c(C(=O)NCC(F)(F)F)ccc2nn(CC3CCN(C(=O)c4ccc(Oc5ccc(F)cc5F)cc4)CC3)cc12`
xxx (xxx > 100)

Now this one: `Cc1c(C(=O)NCCN2CCC(F)(F)C2)ccc2nn(CC3CCN(C(=O)c4ccc(SC(F)(F)F)cc4)CC3)cc12`
xxx (xxx > 100)

Here is the next compound: `COCCNC(=O)c1ccc2nn(C[C@H]3CCN(C(=O)c4ccc(-c5ccc(F)cc5)cc4)C3)cc2c1C`
xxx (xxx > 100)

Then `Cc1c(C(=O)NCCSC(F)(F)F)ccc2nn(CC3CN(C(=O)c4ccc(C(F)(F)F)cc4F)C3)cc12` ?
xxx (xxx > 100)

How about this compound: `Cc1c(C(=O)NCCOC(C)C)ccc2nn(CC3CCN(C(=O)c4ccc(-c5ccc(F)cc5)cc4)CC3)cc12`
xxx (xxx > 100)

Also, `COCCNC(=O)c1ccc2nn(C[C@@H]3CCN(C(=O)c4ccc(Cl)cc4)C3)cc2c1C` please.
xxx (xxx > 100)

Could you do the same for `Cc1c(C(=O)NCCN2CCC(F)(F)C2)ccc2nn(CC3CCN(C(=O)c4ccc(Cl)cc4)CC3)cc12` , please?
xxx (xxx > 100)

Try this compound too: `Cc1c(C(=O)NCC(F)(F)F)ccc2nn(CC3CCN(C(=O)c4ccc(N5CCOCC5)cc4)CC3)cc12`
xx (xx: 10-100)

And then `Cc1c(C(=O)NCC(F)(F)F)ccc2nn(CC3CN(C(=O)c4ccc(C(F)(F)F)cc4F)C3)cc12` , what is it?
xx (xx: 10-100)
